As a worked illustration, we turn to MIC data collected for Bacillus anthracis ATCC 14578.
Give a bare numeral; the unit µg/mL is implied.

Exercise: Suppose we examine the compound `C[C@@H](O)[C@H]1C(=O)N2C(C(=O)O)=C(S[C@@H]3CN[C@H](C(=O)Nc4cccc(C(=O)O)c4)C3)[C@H](C)[C@H]12` ; what MIC value has been reported?
Key: 0.032

Exercise: Suppose we examine the compound C[C@@H](O)[C@H]1C(=O)N2C(C(=O)O)=C(SCCN=CN)C[C@H]12 [Imipenem, monohydrate] ; what MIC value has been reported?
Key: 0.047

Exercise: Suppose we examine the compound `O=C(O)c1cn(C2CC2)c2cc(N3CCNCC3)c(F)cc2c1=O` ; what MIC value has been reported?
Key: 0.064

Exercise: Suppose we examine the compound `CN(C)[C@@H]1C(O)=C(C(N)=O)C(=O)[C@@]2(O)C(O)=C3C(=O)c4c(O)cccc4[C@@](C)(O)[C@H]3C[C@@H]12` ; what MIC value has been reported?
Key: 0.064

Exercise: Suppose we examine the compound `CO[C@@]1(NC(=O)Cc2cccs2)C(=O)N2C(C(=O)O)=C(COC(N)=O)CS[C@@H]21` ; what MIC value has been reported?
Key: 6
